# inhibition at 10 µM listing for each entry below
# System: U138-MG human glioma cell
# Method Notes: Cell proliferation analysis (MTT)
# Type: cell-based
# Measurement Setup: Homo sapiens, 48 h, 10 µM, two days, MTT
# Procedure: U87-MG and U138-MG human glioma cell, were incubated with 10% fetal bovine serum (FBS) (Gibco, 10500-064), 1% L-glutamine (Gibco, 25030-024), in a humidified incubator with 5% CO2 at 37 °C. […] The cytotoxic effects of the target compounds on U87-MG and U138-MG cell lines were assessed using the MTT (Thiazolyl Blue Tetrazolium Bromide) method. […] Cell proliferation was analysed by measuring the absorbance of dissolved formazan at a wavelength of 570 nm. […]
Your answer is read as %, so omit the unit and give the number.

Recorded inhibition at 10 µM, per entry:
Q: Please give the measured inhibition at 10 µM for this molecule: O=C(COc1ccc2c(c1)CCC(=O)N2)N/N=C/c1cccc2ccccc12
Result: 35

Q: Thanks! And Cc1ccc(F)cc1NC(=O)Oc1ccc2c(c1)CCC(=O)N2 ?
Result: 27

Q: Thanks! And O=C1CCc2cc(OCCCN3C(=O)c4ccccc4C3=O)ccc2N1 ?
Result: 37

Q: Thanks! And CCCN1C(=O)CCc2cc(OCCCCc3nnnn3C3CCCCC3)ccc21 ?
Result: 28

Further cases:
Q: Please give the measured inhibition at 10 µM for this molecule: O=C1CCc2cc(OCCCCc3nnnn3C3CCCCC3)ccc2N1Cc1ccc(Cl)cc1
Result: 9

Q: Thanks! And COc1ccc(/C=N/NC(=O)COc2ccc3c(c2)CCC(=O)N3)cc1 ?
Result: 10

Q: Thanks! And CN(C(=O)Oc1ccc2c(c1)CCC(=O)N2)c1ccccc1 ?
Result: 15

Q: Thanks! And O=C1CCc2cc(OCC3CC(c4c(F)cccc4Cl)=NO3)ccc2N1 (stereo not drawn) ?
Result: 21

* * *

# Test system: U87-MG human glioma cell
# Method Notes: Cell proliferation analysis (MTT)
# Type: cell-based
# Measurement Setup: 10 µM, two days, MTT
Hi, to clarify the labels: rule met covers Cell Proliferation (%) from 80% upward, rule not met covers anything below 80%.

Below are worked cases with known answers.
Q: Does the compound O=C1CCc2cc(OS(=O)(=O)c3cccc(Cl)c3Cl)ccc2N1 have recorded Cell Proliferation (%) that is 80% or more?
Result: rule not met

Q: Thanks! And C=CC(=O)N(NC(=O)COc1ccc2c(c1)CCC(=O)N2)C(=O)C=C ?
Result: rule met

Q: Thanks! And Cc1ccccc1NC(=O)Oc1ccc2c(c1)CCC(=O)N2 ?
Result: rule not met

Further cases:
Q: Does the compound O=C1CCc2cc(OCCCBr)ccc2N1 have recorded Cell Proliferation (%) that is 80% or more?
Result: rule met

Q: Thanks! And O=C1CCc2cc(OCc3cc(-c4c(F)cccc4Cl)no3)ccc2N1 ?
Result: rule met

Q: Thanks! And O=C1CCc2cc(OC(=O)Nc3ccccc3Br)ccc2N1 ?
Result: rule met

* * *

# Tested on: U138-MG human glioma cell
# Method Notes: Cell proliferation analysis (MTT)
# Type: cell-based
# Measurement Setup: Homo sapiens, 48 h, 10 µM, two days, MTT
# activity at 10 µM listing for each entry below
Your answer is read as %, so omit the unit and give the number.

Recorded activity at 10 µM, per entry:
Q: Param readout= activity at 10 µM; system= U138-MG human glioma cell; entry= O=C1CCc2cc(OCc3cc(-c4ccc(F)cc4)no3)ccc2N1 ; returns value.
Result: 70

Q: Thanks! And O=C1CCc2cc(OC(=O)c3ccc(CCl)cc3)ccc2N1 ?
Result: 90

Q: Thanks! And O=C1CCc2cc(OCc3cn(-c4cccc5[nH]ncc45)nn3)ccc2N1 ?
Result: 57

Q: Thanks! And C=CCOC(=O)COc1ccc2c(c1)CCC(=O)N2 ?
Result: 100

Q: Thanks! And C=CCOc1ccc2c(c1)CCC(=O)N2 ?
Result: 51

Q: Thanks! And O=C1CCc2cc(OCCCCc3nnnn3C3CCCCC3)ccc2N1Cc1ccc(F)cc1 ?
Result: 43

Q: Thanks! And CC(C)C/C=N/NC(=O)COc1ccc2c(c1)CCC(=O)N2 ?
Result: 84

Q: Thanks! And Cc1ccc(COc2ccc3c(c2)CCC(=O)N3)cc1 ?
Result: 74

Further cases:
Q: Param readout= activity at 10 µM; system= U138-MG human glioma cell; entry= COc1ccc(C(=O)Oc2ccc3c(c2)CCC(=O)N3)cc1OC ; returns value.
Result: 65

Q: Thanks! And O=C(COc1ccc2c(c1)CCC(=O)N2)N/N=C/c1ccc(-c2ccccc2)cc1 ?
Result: 59

Q: Thanks! And CC(=O)OCC1OC(n2cc(COc3ccc4c(c3)CCC(=O)N4)nn2)[C@H](OC(C)=O)[C@@H]1OC(C)=O (some centres unmarked) ?
Result: 100

Q: Thanks! And C=CCCCOc1ccc2c(c1)CCC(=O)N2 ?
Result: 70

* * *

# Method Notes: In vivo GBM rat model: plasma chemistry
# Measurement Setup: GBM rats, 30 mg/kg oral, 5 days, plasma at necropsy
# LDH listing for each entry below

Q: Please give the measured LDH for this molecule: COc1cc(NC(=O)COc2ccc3c(c2)CCC(=O)N3)cc(OC)c1 [TR-G091]
Result: 546.17 IU/L

Q: Thanks! And O=C(COc1ccc2c(c1)CCC(=O)N2)N/N=C/c1cnc(-c2ccc(Cl)cc2)nc1 [TR-G066] ?
Result: 476.16 IU/L

Q: Thanks! And O=C1CCc2cc(OS(=O)(=O)c3cccc4ccccc34)ccc2N1 [TR-G045] ?
Result: 506.78 IU/L

Further cases:
Q: Please give the measured LDH for this molecule: CC(C)CCOc1ccc2c(c1)CCC(=O)N2 [TR-G002]
Result: 535.72 IU/L

Q: Thanks! And C=Cc1ccc(COc2ccc3c(c2)CCC(=O)N3)cc1 [TR-G053] ?
Result: 514 IU/L

Q: Thanks! And C=CCOC(=O)COc1ccc2c(c1)CCC(=O)N2 [TR-G071] ?
Result: 504.2 IU/L

Q: Thanks! And Cn1nnc2c(C(N)=O)ncn2c1=O [TMZ, Temozolomide, reference compound] ?
Result: 499.85 IU/L

* * *

# System: U138-MG human glioma cell
# Method Notes: Cell proliferation analysis (MTT)
# Type: cell-based
# Measurement Setup: Homo sapiens, 48 h, 10 µM, two days, MTT
Experimental Endpoint: activity at 10 µM (%)
Your answer is read as %, so omit the unit and give the number.

Recorded activity at 10 µM, per entry:
Q: Please give the measured activity at 10 µM for this compound: NNC(=O)COc1ccc2c(c1)CCC(=O)N2
Result: 75

Q: Thanks! And CC(=O)CCn1cc(COc2ccc3c(c2)CCC(=O)N3)nn1 ?
Result: 122

Q: Thanks! And COc1cc(NC(=O)COc2ccc3c(c2)CCC(=O)N3)cc(OC)c1OC ?
Result: 80

Q: Thanks! And O=C1CCc2cc(OCCCCOC(=O)c3ccccc3)ccc2N1 ?
Result: 78

Q: Thanks! And CC(C)CCN1C(=O)CCc2cc(OCCCCc3nnnn3C3CCCCC3)ccc21 ?
Result: 76

Further cases:
Q: Please give the measured activity at 10 µM for this compound: COc1cc(NC(=O)COc2ccc3c(c2)CCC(=O)N3)cc(OC)c1
Result: 86

Q: Thanks! And CCOC(=O)CCn1cc(COc2ccc3c(c2)CCC(=O)N3)nn1 ?
Result: 112

Q: Thanks! And O=C(COc1ccc2c(c1)CCC(=O)N2)N/N=C/c1ccc([N+](=O)[O-])cc1 ?
Result: 92

* * *

# Method Notes: In vivo GBM rat model: plasma chemistry
# Set-up: unit not given here
# Measurement Setup: GBM rats, 30 mg/kg oral, 5 days, plasma at necropsy
Experimental Endpoint: UA
// response body must contain only the number

Recorded UA, per entry:
Q: Please give the measured UA for this compound: CC(C)CCOc1ccc2c(c1)CCC(=O)N2
Result: 1.71

Q: Thanks! And C=Cc1ccc(COc2ccc3c(c2)CCC(=O)N3)cc1 ?
Result: 1.64

Q: Thanks! And C=CCOC(=O)COc1ccc2c(c1)CCC(=O)N2 ?
Result: 1.69

Q: Thanks! And O=C1CCc2cc(OS(=O)(=O)c3cccc4ccccc34)ccc2N1 ?
Result: 1.6

Q: Thanks! And COc1cc(NC(=O)COc2ccc3c(c2)CCC(=O)N3)cc(OC)c1 ?
Result: 1.7

Query compound follows.
Q: Please give the measured UA for this compound: O=C(COc1ccc2c(c1)CCC(=O)N2)N/N=C/c1cnc(-c2ccc(Cl)cc2)nc1
Result: 1.7

* * *

# Method Notes: In vivo GBM rat model: plasma chemistry
# Measurement Setup: GBM rats, 30 mg/kg oral, 5 days, plasma at necropsy
# ALT listing for each entry below
Write the quantity with the unit trailing the number.

Recorded ALT, per entry:
Q: Please give the measured ALT for this compound: C=CCOC(=O)COc1ccc2c(c1)CCC(=O)N2
Result: 61.25 IU/L

Q: Thanks! And COc1cc(NC(=O)COc2ccc3c(c2)CCC(=O)N3)cc(OC)c1 ?
Result: 46.97 IU/L

Q: Thanks! And CC(C)CCOc1ccc2c(c1)CCC(=O)N2 ?
Result: 48.37 IU/L

Q: Thanks! And Cn1nnc2c(C(N)=O)ncn2c1=O [TMZ, Temozolomide, reference compound] ?
Result: 42.4 IU/L

Q: Thanks! And O=C1CCc2cc(OS(=O)(=O)c3cccc4ccccc34)ccc2N1 ?
Result: 54.5 IU/L

Q: Thanks! And C=Cc1ccc(COc2ccc3c(c2)CCC(=O)N3)cc1 ?
Result: 44.57 IU/L

Further cases:
Q: Please give the measured ALT for this compound: O=C(COc1ccc2c(c1)CCC(=O)N2)N/N=C/c1cnc(-c2ccc(Cl)cc2)nc1
Result: 38.94 IU/L

All values here come from patent EP4644375A1.
